Entry source: the Kinase Knowledgebase extract (Sharma et al. 2016)

- SYSTEM TESTED: MAPK14 (human)
- ASSAY NOTES: Inhibition of TNF Production (U937 Cells)
MEASURED METRIC: IC50 (nM)

Cc1cccc(-n2nc(C)cc2-c2ccnc(OCc3ccccc3)c2)c1    2640

(a) Fc1ccc(-n2nccc2-c2ccnc(NCc3ccccc3)c2)cc1
(b) Fc1ccc(-n2ncc(N3CCNCC3)c2-c2ccncc2)cc1
(c) CCc1cnn(-c2cccc(F)c2)c1-c1ccncc1
(d) CCNc1cc(-c2cc(C)nn2-c2ccc(C)cc2)ccn1
Returns the items ordered by IC50, from maximum to minimum. List the labels in the requested order.
b, c, d, a

(I) CCCc1cnn(-c2cccc(F)c2)c1-c1ccncc1
(II) Cc1cccc(-n2nc(C)cc2-c2ccnc(NCCc3ccccc3)c2)c1
Of the two listed items, which has the higher IC50? First: I Second: II // caller expects the label of the chosen entry
I

(A) Cc1cc(-c2ccnc(NCCc3ccccc3)c2)n(-c2ccc(Cl)cc2)n1
(B) Cc1cnn(-c2ccc(F)cc2)c1-c1ccncc1
(C) Cc1cc(-c2ccnc(NCCO)c2)n(-c2ccc(Cl)cc2)n1
Thanks in advance: please rank these 3 entries by IC50, highest to lowest. In plain terms: list the labels in the order you were asked to.
B, A, C
(B: 10000 nM, A: 860 nM, C: 480 nM)
